system.under.test: 5-hydroxytryptamine receptor 2C (Sus scrofa, UniProt K7GSR7)
Sequence (K7GSR7 whole entry): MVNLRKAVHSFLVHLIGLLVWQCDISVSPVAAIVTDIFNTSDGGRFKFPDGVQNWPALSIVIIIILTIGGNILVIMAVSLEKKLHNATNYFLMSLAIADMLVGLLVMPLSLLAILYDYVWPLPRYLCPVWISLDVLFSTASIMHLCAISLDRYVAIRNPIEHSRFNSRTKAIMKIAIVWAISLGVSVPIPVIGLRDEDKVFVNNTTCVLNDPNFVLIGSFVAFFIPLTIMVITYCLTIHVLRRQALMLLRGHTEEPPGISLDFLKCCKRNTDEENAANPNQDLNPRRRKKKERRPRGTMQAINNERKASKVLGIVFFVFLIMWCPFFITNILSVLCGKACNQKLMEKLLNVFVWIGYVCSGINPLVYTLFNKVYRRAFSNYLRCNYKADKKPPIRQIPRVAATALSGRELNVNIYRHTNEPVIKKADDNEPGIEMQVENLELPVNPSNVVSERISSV
parameter: Ki (nM)
Give the quantity in nM, number only.

Which Ki value belongs to COc1ccc2cccc(CCNC(C)=O)c2c1 [S 20098] ? 407
